Please provide measured IC50 for the entries that follow.
Target: Clostripain (Hathewaya histolytica)
Construct: purchased Sigma Chemical Corp., St. Louis, Mo
Sequence (P09870 191-526): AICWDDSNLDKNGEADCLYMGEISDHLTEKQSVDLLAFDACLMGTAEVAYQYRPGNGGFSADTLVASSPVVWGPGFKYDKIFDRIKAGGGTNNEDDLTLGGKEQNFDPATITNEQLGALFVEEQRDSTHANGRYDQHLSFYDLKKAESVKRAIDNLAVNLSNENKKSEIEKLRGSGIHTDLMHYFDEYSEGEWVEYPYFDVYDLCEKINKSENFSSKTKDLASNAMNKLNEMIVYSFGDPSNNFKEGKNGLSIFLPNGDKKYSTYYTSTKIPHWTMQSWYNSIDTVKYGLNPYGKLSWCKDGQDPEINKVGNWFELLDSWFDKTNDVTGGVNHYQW
Sequence (P09870 51-181): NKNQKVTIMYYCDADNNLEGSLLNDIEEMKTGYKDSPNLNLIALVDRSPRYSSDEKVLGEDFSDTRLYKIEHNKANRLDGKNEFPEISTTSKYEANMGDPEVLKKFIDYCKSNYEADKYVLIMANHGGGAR
Assay: clostripain assay (BAPNA hydrolysis)
Assay type: biochemical, Clostridium histolyticum
Details: read-out: Clostripain: IC50 (μM) for inhibition of Clostripain
Where no end group is shown, it is not given here.
Value expressed in µM; do not type the unit.

Any idea what IC50 came out for AKRHHGYKRKFH [peptide 113] on Clostripain (Hathewaya histolytica)?
25

Also need KRHHGYKRKF [peptide 129] , thanks.
19

* * *

Test system: C. albicans blastoconidia
Conditions: blastoconidia, 1 h at 37° C., pH 7.4
Where no end group is shown, it is not given here.
Please provide measured C. albicans: LD50 (μM) for % killing for the entries that follow.
Write it as a number; the unit µM goes unstated.

Looking for the measured C. albicans: LD50 (μM) for % killing of KRHHGYKRKFHEKHHSHR [peptide 103] , can you help?
4.5

Proceed to KRHHGYKRKF [peptide 129]
27

KRHHGYKRKFHEKHH [peptide 105] , same question.
5.0

Another sequence: AKRHHGYKRKFH [peptide 113]
5.8

Another sequence to check: KRHHGYKRKFHEKHHSHRGYR [peptide 101]
3.5

The reported numbers originate from patent US5912230A.
